For each record, write down the corresponding IC50.
- systemUnderTest: isolated kinase domain of the human FLT3 receptor (a.a. 571-993) (Homo sapiens, UniProt P36888)
- Construct: human FLT3 receptor (a.a. 571-993)
- Sequence (P36888 571-993): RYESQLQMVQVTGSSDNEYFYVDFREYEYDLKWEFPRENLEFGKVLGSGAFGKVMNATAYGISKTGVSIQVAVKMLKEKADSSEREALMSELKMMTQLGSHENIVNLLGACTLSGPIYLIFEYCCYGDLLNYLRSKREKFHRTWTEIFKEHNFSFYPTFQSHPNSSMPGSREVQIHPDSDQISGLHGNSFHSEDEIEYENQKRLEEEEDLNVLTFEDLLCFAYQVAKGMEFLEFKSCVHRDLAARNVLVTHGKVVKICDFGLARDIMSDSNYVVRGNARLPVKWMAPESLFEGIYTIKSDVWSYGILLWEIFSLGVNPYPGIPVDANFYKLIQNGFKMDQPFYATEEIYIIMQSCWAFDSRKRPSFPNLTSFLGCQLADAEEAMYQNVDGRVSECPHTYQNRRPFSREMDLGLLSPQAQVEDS
- measurementProtocol: FLT3 fluorescence polarization kinase assay
- experimentalContext: 10 nM FLT3 571-993, 150 uM ATP; uncertainty ±10%; read-out: Flt-3 Kinase IC50
Counter-ions that a name gives are not always drawn.

In: Query (molecule): Cc1cscc1-c1cc(N2CCN(C)CC2)ccc1NC(=O)c1ccc(C#N)o1 ; field requested: IC50
Out: 10 nM

In: Could you tell me which IC50 is on file for CN(C)CC(=O)N1CCC(c2ccc(NC(=O)c3nc(C#N)c[nH]3)c(C3=CCC(C)(C)CC3)n2)CC1 [Example 55, trifluoroacetic acid salt] ?
Out: 34 nM

In: Please report the recorded IC50 for N#Cc1c[nH]c(C(=O)Nc2ccc(C3CCNCC3)cc2C2=CCCCC2)c1 [Example 13, trifluoroacetic acid salt] .
Out: 29 nM

###

Provide the reported pIC50 of each item.
- Tested on: MV4-11 cells
- measurementProtocol: Inhibition of MV4-11 cell proliferation (CellTiterGlo)
- Assay type: cell-based
- experimentalContext: Homo sapiens, 72 hours growth, uncertainty ±20%
Counter-ions that a name gives are not always drawn.
Note on pIC50: it is the negative log10 of concentration, concentration in mol/L.

In: Any idea what pIC50 was measured for N#Cc1c[nH]c(C(=O)Nc2ccc(C3CCS(=O)(=O)CC3)cc2C2=CCCCC2)n1 [Example 35] ?
Out: 6.72

In: Request the reported pIC50 associated with N#Cc1c[nH]c(C(=O)Nc2ccc(C3CCNCC3)cc2C2=CCS(=O)(=O)CC2)n1 [Example 36, trifluoroacetic acid salt]
Out: 6.72

In: Would you kindly share the measured pIC50 for Cc1ccccc1-c1cc(N2CCN(C)CC2)ccc1NC(=O)c1ccc(C#N)o1 [Example 9] ?
Out: 6.00

###

- System: MV4-11 cells
- measurementProtocol: Inhibition of MV4-11 cell proliferation (CellTiterGlo)
- Format: cell-based
- experimentalContext: Homo sapiens, 72 hours growth, uncertainty ±20%
pIC50: −log10 of the molar value. Structures can show the parent of a compound that is named as a salt.
Label scheme for pIC50: lower than 7 is condition not met, 7 and above is condition met.

In: Answer whether pIC50 of CN(C)CC(=O)N1CCC(c2ccc(NC(=O)c3nc(C#N)c[nH]3)c(C3=CCCCC3)c2)CC1 is greater than or equal to 7.
Out: condition met

In: Dear colleague, could you confirm whether Cc1cscc1-c1cc(N2CCN(C)CC2)ccc1NC(=O)c1ccc(C#N)o1 has pIC50 at or above 7?
Out: condition not met

In: Hi, just wondering whether N#Cc1c[nH]c(C(=O)Nc2ccc(C3CCN(CCN4CCOCC4)CC3)cc2C2=CCCCC2)n1 [Example 34, di-trifluoroacetic acid salt] shows pIC50 of 7 or higher.
Out: condition met

In: Could you please find out whether C[C@@H]1CC(c2ccc(NC(=O)c3ncc(C#N)[nH]3)c(C3=CCCCC3)c2)C[C@H](C)N1 (some centres unmarked) [Example 51a, bis trifluoroacetic acid salt] has pIC50 that meets 7 or exceeds it?
Out: condition met
